- TARGET_UNDER_TEST: Sodium channel protein type 9 subunit alpha/beta-1/beta-2 (Mus musculus)
- METHOD: Inhibition of mouse Nav1.7/beta1/2 transfected in HEK293-A cells assessed as inhibition of channel current incubated for 5.5 mins by high-throughput electrophysiology system analysis
RECORDED_METRIC: pIC50
Keep in mind that pIC50 stands for -log10 of concentration in molar terms.

INSERT INTO measurements (record_smiles, target_under_test, recorded_metric, val) VALUES
  ('Cc1cn(-c2cncc(C(F)(F)F)c2)c2ccc(C(=O)NS(=O)(=O)C3CC3)cc12', 'Sodium channel protein type 9 subunit alpha/beta-1/beta-2 (Mus musculus)', 'pIC50', 7.21),
  ('Cc1cn(-c2ccc(C(F)(F)F)nc2)c2ccc(C(=O)NS(=O)(=O)C3CC3)cc12', 'Sodium channel protein type 9 subunit alpha/beta-1/beta-2 (Mus musculus)', 'pIC50', 5.80),
  ('Cc1cccc(-n2cc(C)c3cc(C(=O)NS(C)(=O)=O)ccc32)c1', 'Sodium channel protein type 9 subunit alpha/beta-1/beta-2 (Mus musculus)', 'pIC50', 5.80),
  ('CS(=O)(=O)NC(=O)c1cc(Cl)c(Oc2cnc(C3CC3)c(Cl)c2)cc1F', 'Sodium channel protein type 9 subunit alpha/beta-1/beta-2 (Mus musculus)', 'pIC50', 5.77),
  ('Cc1cn(-c2cccc(C(F)(F)F)c2)c2cc(F)c(C(=O)NS(C)(=O)=O)cc12', 'Sodium channel protein type 9 subunit alpha/beta-1/beta-2 (Mus musculus)', 'pIC50', 7.80);

Dear colleague, I am looking for the recorded pIC50 of the following compound: Cc1cn(-c2cccc(F)c2)c2ccc(C(=O)NS(=O)(=O)C3CC3)cc12
6.09

Repeat for the following compound: COc1cccc(-n2cc(C)c3cc(C(=O)NS(C)(=O)=O)ccc32)c1
5.68

Repeat for the following compound: Cc1cn(-c2cccc(C(F)(F)F)c2)c2ccc(C(=O)NS(C)(=O)=O)cc12
6.17

Repeat for the following compound: Cc1cn(-c2cncc(C(F)(F)F)c2)c2cc(F)c(C(=O)NS(=O)(=O)C3CC3)cc12
7.82

###

- TARGET_UNDER_TEST: UniProtKB Q12809
- Sequence (Q12809 whole entry): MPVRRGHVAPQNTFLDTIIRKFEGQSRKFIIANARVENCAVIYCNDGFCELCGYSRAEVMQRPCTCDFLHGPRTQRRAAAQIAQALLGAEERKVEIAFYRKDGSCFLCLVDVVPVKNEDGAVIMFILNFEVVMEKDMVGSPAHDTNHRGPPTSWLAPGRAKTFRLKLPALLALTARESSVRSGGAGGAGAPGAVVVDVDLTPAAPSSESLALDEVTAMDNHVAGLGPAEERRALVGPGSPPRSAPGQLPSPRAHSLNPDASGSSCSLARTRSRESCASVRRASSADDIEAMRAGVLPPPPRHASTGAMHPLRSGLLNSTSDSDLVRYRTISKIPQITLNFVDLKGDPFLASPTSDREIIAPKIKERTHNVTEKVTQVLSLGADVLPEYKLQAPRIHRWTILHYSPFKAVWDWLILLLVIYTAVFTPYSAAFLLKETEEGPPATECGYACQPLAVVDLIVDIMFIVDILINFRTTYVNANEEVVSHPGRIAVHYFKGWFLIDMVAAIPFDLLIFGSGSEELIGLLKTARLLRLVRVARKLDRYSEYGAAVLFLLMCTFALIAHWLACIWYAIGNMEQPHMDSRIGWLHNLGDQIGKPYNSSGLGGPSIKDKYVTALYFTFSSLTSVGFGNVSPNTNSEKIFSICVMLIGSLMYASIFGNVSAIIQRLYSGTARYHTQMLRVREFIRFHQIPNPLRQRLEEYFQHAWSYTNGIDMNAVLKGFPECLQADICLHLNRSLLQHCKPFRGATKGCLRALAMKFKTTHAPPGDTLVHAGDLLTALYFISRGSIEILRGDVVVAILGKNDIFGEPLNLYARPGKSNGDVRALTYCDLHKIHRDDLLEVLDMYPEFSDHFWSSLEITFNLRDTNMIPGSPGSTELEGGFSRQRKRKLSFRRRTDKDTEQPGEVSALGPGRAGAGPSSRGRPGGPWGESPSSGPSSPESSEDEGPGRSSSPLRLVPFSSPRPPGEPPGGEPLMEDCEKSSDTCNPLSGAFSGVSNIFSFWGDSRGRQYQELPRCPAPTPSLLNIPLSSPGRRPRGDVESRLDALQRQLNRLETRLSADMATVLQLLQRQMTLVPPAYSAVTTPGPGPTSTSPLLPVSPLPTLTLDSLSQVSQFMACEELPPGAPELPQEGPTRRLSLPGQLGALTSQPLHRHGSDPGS
- METHOD: Inhibition of hERG at 100 uM
- Type: toxicity
RECORDED_METRIC: inhibition at 100 µM (%)
Provide the reading as a plain figure in %.

INSERT INTO results (record_smiles, recorded_metric, val) VALUES
  ('Cc1cn(-c2cccc(C(F)(F)F)c2)c2ccc(C(=O)NS(C)(=O)=O)cc12', 'inhibition at 100 µM', 49.8);

Dear colleague, I am looking for the recorded inhibition at 100 µM of the following compound: Cc1cccc(-n2cc(C)c3cc(C(=O)NS(C)(=O)=O)ccc32)c1
51

Repeat for the following compound: Cc1cn(-c2ccc(Cl)cc2)c2ccc(C(=O)NS(C)(=O)=O)cc12
51.1

Repeat for the following compound: COc1cccc(-n2cc(C)c3cc(C(=O)NS(C)(=O)=O)ccc32)c1
18.9

Repeat for the following compound: Cc1cn(-c2ccccc2)c2ccc(C(=O)NS(C)(=O)=O)cc12
17.1

###

- METHOD: Aqueous thermodynamic solubility of the compound at pH 6.8 measured after 4 hrs by HPLC-UV analysis
- Format: physicochemical
- APPLIED_CONDITIONS: read-out: Therm_solubility
RECORDED_METRIC: solubility thermodynamic at 4 h (µM)
Provide the reading as a plain figure in µM.

Worked cases, answers included:
INSERT INTO results (record_smiles, endpoint_unit, val) VALUES
  ('Cc1cn(-c2ccc(C(F)(F)F)nc2)c2ccc(C(=O)NS(=O)(=O)C3CC3)cc12', 'µM', 29),
  ('Cc1cn(-c2cncc(Cl)c2)c2ccc(C(=O)NS(=O)(=O)C3CC3)cc12', 'µM', 35),
  ('Cc1cccc(-n2cc(C)c3cc(C(=O)NS(C)(=O)=O)ccc32)c1', 'µM', 550),
  ('Cc1cn(-c2ccc(Cl)cc2)c2ccc(C(=O)NS(C)(=O)=O)cc12', 'µM', 26),
  ('Cc1cn(-c2ccc(F)cc2)c2ccc(C(=O)NS(C)(=O)=O)cc12', 'µM', 140),
  ('Cc1cn(-c2cccc(Cl)c2)c2ccc(C(=O)NS(C)(=O)=O)cc12', 'µM', 620);

Dear colleague, I am looking for the recorded solubility thermodynamic at 4 h of the following compound: Cc1cn(-c2cccc(C(F)(F)F)c2)c2cc(F)c(C(=O)NS(C)(=O)=O)cc12
230

Repeat for the following compound: Cc1cn(-c2cccc(F)c2)c2cc(F)c(C(=O)NS(C)(=O)=O)cc12
430

###

Parameter pIC50: see the listing below.
- TARGET_UNDER_TEST: Sodium channel protein type 9 subunit alpha/beta-1/beta-2 (Homo sapiens)
- Sequence (Q15858 whole entry): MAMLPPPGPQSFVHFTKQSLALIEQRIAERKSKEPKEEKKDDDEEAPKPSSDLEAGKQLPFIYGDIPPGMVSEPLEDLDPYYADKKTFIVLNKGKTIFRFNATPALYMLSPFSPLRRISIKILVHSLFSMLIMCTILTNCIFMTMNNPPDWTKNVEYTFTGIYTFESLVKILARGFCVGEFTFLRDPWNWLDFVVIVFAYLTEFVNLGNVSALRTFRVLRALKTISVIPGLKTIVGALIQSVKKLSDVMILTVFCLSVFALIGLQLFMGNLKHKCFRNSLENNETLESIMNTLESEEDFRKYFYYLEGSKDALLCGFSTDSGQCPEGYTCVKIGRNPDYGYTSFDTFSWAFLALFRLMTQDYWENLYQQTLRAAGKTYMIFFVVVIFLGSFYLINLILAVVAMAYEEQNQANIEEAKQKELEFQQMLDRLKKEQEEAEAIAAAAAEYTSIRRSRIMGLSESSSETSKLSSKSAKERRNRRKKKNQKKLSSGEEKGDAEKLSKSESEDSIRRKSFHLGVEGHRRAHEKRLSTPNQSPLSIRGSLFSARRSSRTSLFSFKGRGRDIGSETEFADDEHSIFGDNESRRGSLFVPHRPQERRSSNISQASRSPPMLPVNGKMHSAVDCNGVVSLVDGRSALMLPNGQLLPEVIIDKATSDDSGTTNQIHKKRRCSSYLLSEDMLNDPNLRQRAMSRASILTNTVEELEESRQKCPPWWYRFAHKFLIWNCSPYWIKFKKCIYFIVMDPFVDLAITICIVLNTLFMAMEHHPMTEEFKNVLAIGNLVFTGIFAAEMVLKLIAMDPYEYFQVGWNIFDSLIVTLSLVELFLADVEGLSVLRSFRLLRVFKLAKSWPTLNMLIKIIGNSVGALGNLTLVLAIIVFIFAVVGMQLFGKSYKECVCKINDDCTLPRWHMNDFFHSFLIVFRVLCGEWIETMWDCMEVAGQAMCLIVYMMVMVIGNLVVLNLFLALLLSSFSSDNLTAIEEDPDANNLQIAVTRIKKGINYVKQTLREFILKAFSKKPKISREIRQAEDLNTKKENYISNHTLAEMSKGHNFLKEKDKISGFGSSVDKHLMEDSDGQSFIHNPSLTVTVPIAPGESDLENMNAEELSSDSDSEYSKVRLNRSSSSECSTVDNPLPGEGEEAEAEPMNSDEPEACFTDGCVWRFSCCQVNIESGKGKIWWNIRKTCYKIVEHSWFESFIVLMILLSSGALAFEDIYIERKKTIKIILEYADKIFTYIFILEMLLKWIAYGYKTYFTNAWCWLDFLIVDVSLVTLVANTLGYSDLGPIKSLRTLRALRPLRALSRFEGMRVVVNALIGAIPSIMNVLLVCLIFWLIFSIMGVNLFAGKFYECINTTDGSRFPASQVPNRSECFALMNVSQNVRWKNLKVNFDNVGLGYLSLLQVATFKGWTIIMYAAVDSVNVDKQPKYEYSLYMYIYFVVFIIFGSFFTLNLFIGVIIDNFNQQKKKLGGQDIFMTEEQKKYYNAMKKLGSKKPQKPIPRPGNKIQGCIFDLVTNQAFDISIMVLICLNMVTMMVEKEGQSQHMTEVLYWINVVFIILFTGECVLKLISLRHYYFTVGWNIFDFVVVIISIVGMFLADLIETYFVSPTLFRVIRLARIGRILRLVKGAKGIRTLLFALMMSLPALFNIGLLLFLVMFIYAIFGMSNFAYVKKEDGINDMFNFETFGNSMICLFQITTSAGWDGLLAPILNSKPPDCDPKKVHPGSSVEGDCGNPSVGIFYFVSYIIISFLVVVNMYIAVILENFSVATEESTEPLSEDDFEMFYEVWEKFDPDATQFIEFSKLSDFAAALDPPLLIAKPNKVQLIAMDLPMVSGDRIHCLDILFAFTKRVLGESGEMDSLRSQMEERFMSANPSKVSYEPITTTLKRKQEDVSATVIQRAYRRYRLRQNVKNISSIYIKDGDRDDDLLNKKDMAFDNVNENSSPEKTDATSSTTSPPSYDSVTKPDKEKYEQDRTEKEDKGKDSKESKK
- Sequence (O60939 whole entry, further chain): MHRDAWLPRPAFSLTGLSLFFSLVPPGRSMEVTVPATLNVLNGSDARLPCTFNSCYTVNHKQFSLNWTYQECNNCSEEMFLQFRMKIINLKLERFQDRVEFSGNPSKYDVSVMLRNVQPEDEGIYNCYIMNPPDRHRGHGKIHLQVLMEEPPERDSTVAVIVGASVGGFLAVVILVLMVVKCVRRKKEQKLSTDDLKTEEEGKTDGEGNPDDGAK
- Sequence (Q07699 whole entry, further chain): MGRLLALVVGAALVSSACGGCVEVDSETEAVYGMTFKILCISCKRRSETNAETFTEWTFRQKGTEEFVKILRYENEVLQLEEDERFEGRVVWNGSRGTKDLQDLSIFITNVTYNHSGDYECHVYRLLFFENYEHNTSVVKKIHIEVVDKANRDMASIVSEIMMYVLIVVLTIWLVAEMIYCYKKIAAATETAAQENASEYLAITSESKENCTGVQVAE
- METHOD: Inhibition of human Nav1.7/beta1/2 transfected in HEK293-A cells assessed as inhibition of channel current incubated for 5.5 mins by high-throughput electrophysiology system analysis
Keep in mind that pIC50 stands for -log10 of concentration in molar terms.

INSERT INTO measurements (record_smiles, target_under_test, recorded_metric, val) VALUES
  ('Cc1cn(-c2cccc(Cl)c2)c2ccc(C(=O)NS(C)(=O)=O)cc12', 'Sodium channel protein type 9 subunit alpha/beta-1/beta-2 (Homo sapiens)', 'pIC50', 7.06),
  ('Cc1cn(-c2cccc(F)c2)c2cc(F)c(C(=O)NS(C)(=O)=O)cc12', 'Sodium channel protein type 9 subunit alpha/beta-1/beta-2 (Homo sapiens)', 'pIC50', 7.85),
  ('Cc1cn(-c2ccc(F)cc2)c2ccc(C(=O)NS(C)(=O)=O)cc12', 'Sodium channel protein type 9 subunit alpha/beta-1/beta-2 (Homo sapiens)', 'pIC50', 6.72),
  ('Cc1cn(-c2cncc(Cl)c2)c2ccc(C(=O)NS(=O)(=O)C3CC3)cc12', 'Sodium channel protein type 9 subunit alpha/beta-1/beta-2 (Homo sapiens)', 'pIC50', 7.07),
  ('Cc1cn(-c2cccc(C(F)(F)F)c2)c2cc(F)c(C(=O)NS(C)(=O)=O)cc12', 'Sodium channel protein type 9 subunit alpha/beta-1/beta-2 (Homo sapiens)', 'pIC50', 7.72),
  ('Cc1cn(-c2cncc(C(F)(F)F)c2)c2ccc(C(=O)NS(=O)(=O)C3CC3)cc12', 'Sodium channel protein type 9 subunit alpha/beta-1/beta-2 (Homo sapiens)', 'pIC50', 7.82),
  ('COc1cccc(-n2cc(C)c3cc(C(=O)NS(C)(=O)=O)ccc32)c1', 'Sodium channel protein type 9 subunit alpha/beta-1/beta-2 (Homo sapiens)', 'pIC50', 6.72),
  ('Cc1cn(-c2cccc(C(F)(F)F)c2)c2ccc(C(=O)NS(C)(=O)=O)cc12', 'Sodium channel protein type 9 subunit alpha/beta-1/beta-2 (Homo sapiens)', 'pIC50', 7.47),
  ('Cc1cn(-c2cncc(F)c2)c2ccc(C(=O)NS(=O)(=O)C3CC3)cc12', 'Sodium channel protein type 9 subunit alpha/beta-1/beta-2 (Homo sapiens)', 'pIC50', 6.07),
  ('Cc1cn(-c2cncc(C(F)(F)F)c2)c2cc(F)c(C(=O)NS(=O)(=O)C3CC3)cc12', 'Sodium channel protein type 9 subunit alpha/beta-1/beta-2 (Homo sapiens)', 'pIC50', 7.40);

Dear colleague, I am looking for the recorded pIC50 of the following compound: Cc1cccc(-n2cc(C)c3cc(C(=O)NS(C)(=O)=O)ccc32)c1
7.24

Repeat for the following compound: Cc1cn(-c2ccccc2)c2ccc(C(=O)NS(C)(=O)=O)cc12
6.48

Repeat for the following compound: Cc1cn(-c2cccc(F)c2)c2ccc(C(=O)NS(C)(=O)=O)cc12
7.42

Repeat for the following compound: Cc1cn(-c2ccc(Cl)cc2)c2ccc(C(=O)NS(C)(=O)=O)cc12
6.59

###

- METHOD: 1-Octanol/PBS buffer distribution coefficient, log D of the compound at pH 7.4 by HPLC/LC-MS analysis
- Assay type: physicochemical
RECORDED_METRIC: logD
Reply: number alone, nothing else.

INSERT INTO assay_data (record_smiles, recorded_metric, val) VALUES
  ('Cc1cn(-c2cccc(F)c2)c2ccc(C(=O)NS(C)(=O)=O)cc12', 'logD', 1.2),
  ('Cc1cn(-c2cccc(C(F)(F)F)c2)c2cc(F)c(C(=O)NS(C)(=O)=O)cc12', 'logD', 1.5),
  ('Cc1cn(-c2cncc(C(F)(F)F)c2)c2ccc(C(=O)NS(=O)(=O)C3CC3)cc12', 'logD', 1),
  ('Cc1cn(-c2ccc(C(F)(F)F)nc2)c2ccc(C(=O)NS(=O)(=O)C3CC3)cc12', 'logD', 1),
  ('Cc1cccc(-n2cc(C)c3cc(C(=O)NS(C)(=O)=O)ccc32)c1', 'logD', 1.6),
  ('Cc1cn(-c2cccc(Cl)c2)c2ccc(C(=O)NS(C)(=O)=O)cc12', 'logD', 1.8);

Dear colleague, I am looking for the recorded logD of the following compound: Cc1cn(-c2ccc(Cl)cc2)c2ccc(C(=O)NS(C)(=O)=O)cc12
1.8

Repeat for the following compound: Cc1cn(-c2cccc(F)c2)c2cc(F)c(C(=O)NS(C)(=O)=O)cc12
0.8

Repeat for the following compound: COc1cccc(-n2cc(C)c3cc(C(=O)NS(C)(=O)=O)ccc32)c1
1.2

Repeat for the following compound: Cc1cn(-c2ccccc2)c2ccc(C(=O)NS(C)(=O)=O)cc12
1.1

Repeat for the following compound: Cc1cn(-c2cncc(Cl)c2)c2ccc(C(=O)NS(=O)(=O)C3CC3)cc12
0.8

Repeat for the following compound: Cc1cn(-c2cncc(C(F)(F)F)c2)c2cc(F)c(C(=O)NS(=O)(=O)C3CC3)cc12
0.6
